Target: PMS2 protein (Homo sapiens, UniProt P54278)
Construct: host or cells: SW620 human colorectal carcinoma cells
Sequence (P54278 whole entry): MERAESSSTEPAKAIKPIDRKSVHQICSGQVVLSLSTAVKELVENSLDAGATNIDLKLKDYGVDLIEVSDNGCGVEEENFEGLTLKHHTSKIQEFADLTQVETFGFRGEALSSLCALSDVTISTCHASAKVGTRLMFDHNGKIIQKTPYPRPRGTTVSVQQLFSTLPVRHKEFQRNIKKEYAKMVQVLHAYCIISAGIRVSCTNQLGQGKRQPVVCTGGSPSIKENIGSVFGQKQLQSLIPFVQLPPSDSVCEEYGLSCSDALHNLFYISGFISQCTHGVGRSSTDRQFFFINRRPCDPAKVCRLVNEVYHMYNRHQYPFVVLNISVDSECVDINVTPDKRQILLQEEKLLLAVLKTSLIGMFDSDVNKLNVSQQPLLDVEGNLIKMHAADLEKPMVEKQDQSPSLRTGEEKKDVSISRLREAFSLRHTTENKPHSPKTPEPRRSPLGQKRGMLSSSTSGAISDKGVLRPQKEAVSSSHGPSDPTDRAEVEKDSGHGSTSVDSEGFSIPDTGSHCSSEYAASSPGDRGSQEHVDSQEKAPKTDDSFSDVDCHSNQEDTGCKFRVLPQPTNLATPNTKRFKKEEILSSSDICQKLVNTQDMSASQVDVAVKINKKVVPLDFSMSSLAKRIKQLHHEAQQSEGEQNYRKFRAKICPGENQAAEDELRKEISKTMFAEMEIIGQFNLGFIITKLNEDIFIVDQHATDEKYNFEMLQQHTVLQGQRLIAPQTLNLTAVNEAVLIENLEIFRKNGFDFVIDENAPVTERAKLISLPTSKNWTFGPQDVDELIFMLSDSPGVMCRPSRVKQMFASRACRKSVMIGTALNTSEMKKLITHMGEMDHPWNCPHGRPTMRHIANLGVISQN
Test: PROTAC screening in SW620 human colorectal carcinoma cells, PMS2 protein level by JESS Western blot
Type: cell-based
Details: SW-620, 24 h, 1 uM compound, normalised to actin and DMSO control, Table A1
reported.endpoint: remaining activity at 1 µM

Some molecules with recorded remaining activity at 1 µM:
>>> observed_value("Cc1c(O)cc(O)c(C(=O)N2Cc3ccc(CN4CCN(CCOCCOCCOCCOCCNc5cccc6c5C(=O)N(C5CCC(=O)NC5=O)C6=O)CC4)cc3C2)c1OCc1ccccc1 (centres unmarked)")
"10 to 25%"
>>> observed_value("Cc1c(O)cc(O)c(C(=O)N2Cc3ccc(CN4CCN(CCOCCOCCOCCNc5cccc6c5CN(C5CCC(=O)NC5=O)C6=O)CC4)cc3C2)c1OCC1CCCCC1 (centres unmarked)")
"10 to 25%"
>>> observed_value("Cc1c(O)cc(O)c(C(=O)N2Cc3ccc(CN4CCN(CCOCCOCCOCCOCCOCCOc5cccc6c5C(=O)N(C5CCC(=O)NC5=O)C6=O)CC4)cc3C2)c1OCc1ccccc1 (centres unmarked)")
"10 to 25%"
>>> observed_value("Cc1c(O)cc(O)c(C(=O)N2Cc3ccc(CN4CCN(CCOCCOCCOCCNc5ccc6c(c5)CN(C5CCC(=O)NC5=O)C6=O)CC4)cc3C2)c1OCc1ccccc1 (centres unmarked)")
"25 to 50%"
>>> observed_value("Cc1c(O)cc(O)c(C(=O)N2Cc3ccc(CN4CCN(CCOCCOCCOCCOCCOCCNc5cccc6c5C(=O)N(C5CCC(=O)NC5=O)C6=O)CC4)cc3C2)c1OCc1ccccc1 (centres unmarked)")
"< 10%"

Inquiry: What value of remaining activity at 1 µM has been recorded for this entry: Cc1c(O)cc(O)c(C(=O)N2Cc3ccc(CN4CCN(CCOCCOCCOCCNc5ccc6c(c5)C(=O)N(C5CCC(=O)NC5=O)C6=O)CC4)cc3C2)c1OCc1ccccc1 (centres unmarked)
Reply text: 10 to 25%

Inquiry: For the molecule shown here, Cc1c(O)cc(O)c(C(=O)N2Cc3ccc(C(=O)N4CCC(CN5CCN(c6cc7c(cc6F)C(=O)N(C6CCC(=O)NC6=O)C7=O)CC5)CC4)cc3C2)c1OCc1ccccc1 (centres unmarked) , give the reported remaining activity at 1 µM.
Reply text: 10 to 25%

Inquiry: Entry Cc1c(O)cc(O)c(C(=O)N2Cc3ccc(CN4CCC(C(=O)N5CCN(c6ccc7c(c6)CN(C6CCC(=O)NC6=O)C7=O)CC5)CC4)cc3C2)c1OCC1CCCCC1 (centres unmarked) has what remaining activity at 1 µM?
Reply text: 10 to 25%

Inquiry: Fill in: remaining activity at 1 µM of Cc1c(O)cc(O)c(C(=O)N2Cc3ccc(CN4CCN(CCOCCOCCNc5cccc6c5C(=O)N(C5CCC(=O)NC5=O)C6=O)CC4)cc3C2)c1OCc1ccccc1 (centres unmarked) is ___
Reply text: 25 to 50%

Inquiry: Param item = Cc1c(O)cc(O)c(C(=O)N2Cc3ccc(CN4CCN(CCOCCOCCOCCOCCNc5ccc6c(c5)C(=O)N(C5CCC(=O)NC5=O)C6=O)CC4)cc3C2)c1OCc1ccccc1 (centres unmarked) ; retrieve measured remaining activity at 1 µM.
Reply text: < 10%

Inquiry: Would you mind telling me what remaining activity at 1 µM value was observed for Cc1c(O)cc(O)c(C(=O)N2Cc3ccc(CN4CCN(CCOCCOCCOCCOCCOCCOCCNc5cccc6c5C(=O)N(C5CCC(=O)NC5=O)C6=O)CC4)cc3C2)c1OCC1CCCCC1 (centres unmarked) ?
Reply text: 10 to 25%

Inquiry: Requested read-out: remaining activity at 1 µM. Entry: Cc1ncsc1-c1ccc(CNC(=O)[C@@H]2C[C@@H](O)CN2C(=O)[C@@H](NC(=O)CCCCCCCCC(=O)N2CCN(Cc3ccc4c(c3)CN(C(=O)c3c(O)cc(O)c(C)c3OCC3CCCCC3)C4)CC2)C(C)(C)C)cc1
Reply text: < 10%

Inquiry: What value of remaining activity at 1 µM has been reported for the following molecule? Cc1c(O)cc(O)c(C(=O)N2Cc3ccc(CN4CCN(CCOCCOCCOc5cccc6c5C(=O)N(C5CCC(=O)NC5=O)C6=O)CC4)cc3C2)c1OCc1ccccc1 (centres unmarked)
Reply text: 25 to 50%

Inquiry: Using the record for Cc1c(O)cc(O)c(C(=O)N2Cc3ccc(CN4CCN(CCOCCOCCOCCOc5cccc6c5C(=O)N(C5CCC(=O)NC5=O)C6=O)CC4)cc3C2)c1OCc1ccccc1 (centres unmarked) , report its remaining activity at 1 µM.
Reply text: 10 to 25%

Inquiry: Quick check: remaining activity at 1 µM of Cc1c(O)cc(O)c(C(=O)N2Cc3ccc(CN4CCC(CC(=O)N5CCN(c6ccc7c(c6)CN(C6CCC(=O)NC6=O)C7=O)CC5)CC4)cc3C2)c1OCC1CCCCC1 (centres unmarked) ?
Reply text: 10 to 25%

---

# remaining activity at 1 µM per entry
Molecular target: PMS2 protein (Homo sapiens, UniProt P54278)
Construct: host or cells: SW620 human colorectal carcinoma cells
Experiment: PROTAC screening in SW620 human colorectal carcinoma cells, PMS2 protein level by JESS Western blot
Assay type: cell-based
Conditions: SW-620, 24 h, 1 uM compound, normalised to actin and DMSO control, Table A1

Some solved cases for reference:
>>> observed_value("Cc1c(O)cc(O)c(C(=O)N2Cc3ccc(CN4CCN(CCOCCOCCOCCOCCNc5cccc6c5C(=O)N(C5CCC(=O)NC5=O)C6=O)CC4)cc3C2)c1OCC1CCCCC1 (centres unmarked)")
"< 10%"
>>> observed_value("Cc1ncsc1-c1ccc(CNC(=O)[C@@H]2C[C@@H](O)CN2C(=O)[C@@H](NC(=O)CCCCCCCCCC(=O)N2CCN(Cc3ccc4c(c3)CN(C(=O)c3c(O)cc(O)c(C)c3OCC3CCCCC3)C4)CC2)C(C)(C)C)cc1")
"< 10%"
>>> observed_value("Cc1c(O)cc(O)c(C(=O)N2Cc3ccc(CN4CCN(CCOCCOCCOCCNc5cccc6c5CN(C5CCC(=O)NC5=O)C6=O)CC4)cc3C2)c1OCc1ccccc1 (centres unmarked)")
"10 to 25%"
>>> observed_value("Cc1ncsc1-c1ccc(CNC(=O)[C@@H]2C[C@@H](O)CN2C(=O)[C@@H](NC(=O)CCCCCCCC(=O)N2CCN(Cc3ccc4c(c3)CN(C(=O)c3c(O)cc(O)c(C)c3OCC3CCCCC3)C4)CC2)C(C)(C)C)cc1")
"< 10%"

Consider the additional compound presented here.
Inquiry: Tell me the measured remaining activity at 1 µM of Cc1ncsc1-c1ccc(CNC(=O)[C@@H]2C[C@@H](O)CN2C(=O)[C@@H](NC(=O)CCCCCCC(=O)N2CCN(Cc3ccc4c(c3)CN(C(=O)c3c(O)cc(O)c(C)c3OCc3ccccc3)C4)CC2)C(C)(C)C)cc1 , please.
Reply text: < 10%

---

Target: PMS2 protein (Homo sapiens)
Construct: host or cells: SW620 human colorectal carcinoma cells
Assay: PROTAC screening in SW620 human colorectal carcinoma cells, PMS2 protein level by JESS Western blot
Format: cell-based
Settings: SW-620, 24 h, 1 uM compound, normalised to actin and DMSO control, Table A1
reported.endpoint: remaining activity at 1 µM

Sample records with remaining activity at 1 µM:
>>> observed_value("Cc1c(O)cc(O)c(C(=O)N2Cc3ccc(C(=O)N4CCC(OCCOCCOCCN5CCN(c6cc7c(cc6F)C(=O)N(C6CCC(=O)NC6=O)C7=O)CC5)CC4)cc3C2)c1OCc1ccccc1 (centres unmarked)")
"25 to 50%"
>>> observed_value("Cc1ncsc1-c1ccc(CNC(=O)[C@@H]2C[C@@H](O)CN2C(=O)[C@@H](NC(=O)CCCCCCC(=O)N2CCN(Cc3ccc4c(c3)CN(C(=O)c3c(O)cc(O)c(C)c3OCC3CCCCC3)C4)CC2)C(C)(C)C)cc1")
"< 10%"
>>> observed_value("Cc1ncsc1-c1ccc(CNC(=O)[C@@H]2C[C@@H](O)CN2C(=O)[C@@H](NC(=O)CCCCCC(=O)N2CCN(Cc3ccc4c(c3)CN(C(=O)c3c(O)cc(O)c(C)c3OCC3CCCCC3)C4)CC2)C(C)(C)C)cc1")
"< 10%"

Inquiry: Look at this molecule and give its reported remaining activity at 1 µM. Cc1ncsc1-c1ccc(CNC(=O)[C@@H]2C[C@@H](O)CN2C(=O)[C@@H](NC(=O)CCCCCCCCCC(=O)N2CCN(Cc3ccc4c(c3)CN(C(=O)c3c(O)cc(O)c(C)c3OCc3ccccc3)C4)CC2)C(C)(C)C)cc1
Reply text: < 10%

Inquiry: Fill blank: measured remaining activity at 1 µM of the molecule Cc1c(O)cc(O)c(C(=O)N2Cc3ccc(CN4CCN(CCOCCOCCOCCOc5cccc6c5CN(C5CCC(=O)NC5=O)C6=O)CC4)cc3C2)c1OCc1ccccc1 (centres unmarked) is ____.
Reply text: 10 to 25%
